Just for reference, ChEMBL document CHEMBL4689842 is where these values come from.

Tested on: Fibroblast
Assay: Multiplex assay against human fibroblast
Assay type: toxicity, cell-based
Settings: 48 h, 1 µM, compound concentration 1 uM, replicate 2
compounds and their reported Population Normal (%)
VALUE TYPE: Population Normal (%)

| COMPOUND | TARGET DESC | VALUE TYPE | MEASURED |
| --- | --- | --- | --- |
| COc1cc(Nc2nccc(-c3cnn4nc(OC)ccc34)n2)cc(C(F)(F)F)c1 | Fibroblast | Population Normal (%) | 89 |
| CC(C)NC(=O)N1CC[C@H](NC2=Nc3cc(F)ccc3N(CC(F)F)c3ccc(Cl)cc32)C1 | Fibroblast | Population Normal (%) | 74 |
| CCc1nn(CCCN2CCN(c3cccc(Cl)c3)CC2)c(=O)n1CCOc1ccccc1.Cl [NEFAZODONE HYDROCHLORIDE] | Fibroblast | Population Normal (%) | 86 |
| CCCSc1nc(N[C@@H]2C[C@H]2c2ccc(F)c(F)c2)c2nnn([C@@H]3C[C@H](OCCO)[C@@H](O)[C@H]3O)c2n1 | Fibroblast | Population Normal (%) | 89 |
| C[C@]12CC[C@@H]3c4ccc(O)cc4CC[C@H]3[C@@H]1CC[C@@H]2O | Fibroblast | Population Normal (%) | 85 |
| Cc1cccc(CN2CCN(C(c3ccccc3)c3ccc(Cl)cc3)CC2)c1.Cl.Cl (stereo not drawn) | Fibroblast | Population Normal (%) | 90 |
| CC(C)c1noc(N2CCC(COc3ccc(-c4ccc(S(C)(=O)=O)cc4)nc3)CC2)n1 | Fibroblast | Population Normal (%) | 91 |
| COc1cc2ncn(-c3cc(OCc4ccccc4C(F)(F)F)c(C(N)=O)s3)c2cc1OC [GW843682X] | Fibroblast | Population Normal (%) | 90 |

---

Measured Population Membrane Permeable-Phenotype (%) of individual entries
System: Fibroblast
Test: Multiplex assay against human fibroblast
Type: toxicity, cell-based
Conditions: 48 h, 1 µM, compound concentration 1 uM, replicate 2
VALUE TYPE: Population Membrane Permeable-Phenotype (%)

| COMPOUND | TARGET DESC | MEASURED |
| --- | --- | --- |
| C[C@]12CC[C@@H]3c4ccc(O)cc4CC[C@H]3[C@@H]1CC[C@@H]2O [ESTRADIOL] | Fibroblast | 8 |
| CC(C)c1noc(N2CCC(COc3ccc(-c4ccc(S(C)(=O)=O)cc4)nc3)CC2)n1 [GSK-1292263] | Fibroblast | 21 |
| CCc1ccc(OCc2ccccc2C(=O)Nc2ccc3nc(C)cc(N)c3c2)cc1.Cl | Fibroblast | 30 |
| CC(C)Oc1ccccc1C(=O)Nc1ccccc1C(=O)Nc1cccc(S(=O)(=O)C(F)(F)F)c1 | Fibroblast | 4 |
| CC(C)OC(=O)N1CCC(Oc2ncnc3c2cnn3-c2ccc(S(C)(=O)=O)cc2F)CC1 | Fibroblast | 31 |

---

Tested on: Fibroblast
Experiment: Multiplex assay against human fibroblast
Type: toxicity, cell-based
Settings: 48 h, 10 µM, compound concentration 10 uM, replicate 2

| COMPOUND | Population Apoptotic (%) |
| --- | --- |
| COc1ccccc1CN[C@H]1C2CCN(CC2)[C@H]1C(c1ccccc1)c1ccccc1 [CP-96345] | 25 |
| Cc1ccc(C)c(Oc2ccncc2C(=O)N2CCN(C3CC3)c3ccccc32)c1 | 25 |
| Cc1c[nH]c2nccc(Oc3c(F)cc(Nc4cc(Cl)nc(N)n4)cc3F)c12 [BAY-549] | 57 |
| CC(C)Oc1ccccc1C(=O)Nc1ccccc1C(=O)Nc1cccc(S(=O)(=O)C(F)(F)F)c1 | 50 |
| COc1cc2ncn(-c3cc(OCc4ccccc4C(F)(F)F)c(C(N)=O)s3)c2cc1OC [GW843682X] | 50 |
| C[C@]12CC[C@@H]3c4ccc(O)cc4CC[C@H]3[C@@H]1CC[C@@H]2O [ESTRADIOL] | 0 |
